B1: ZNF449 (parent)
chain: FQEYDTDCEVFRQRFRQFQYREAA

- Variants of: B1
- PROTOCOL DETAILS: protein stability index of a GFP-peptide fusion (GPS, HEK-293T) (PSI 1-6); higher = more stable;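 note: lentivirally expressed fusions sorted by FACS into six bins by GFP to DsRed ratio, PSI derived from sequencing read proportions per bin multiplied by bin number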
- CONDITION SUMMARY: c terminus: a fixed tail appended
protein stability index by entry:

VARIANT SPEC	protein stability index
A23F	2.15
V10C	2.52

The measured protein stability index associated with D7G reads 2.02

The measured protein stability index associated with Q13H reads 2.53

The measured protein stability index associated with Q19I reads 2.53

The measured protein stability index associated with R16W reads 2.2

The measured protein stability index associated with V10M reads 2.63

meta.source: the supplement of paper PMC10567573
